- protocol: physchem
- condition description: pH 7.4
Below is a list of entries, each paired with its recorded logD at 4 h value.
readout: logD at 4 h

# molecule, observed
rows = [
    ("CC(CCC(=O)NC(CC(=O)O)Cc1cn(S(=O)(=O)c2ccccc2)c2ccccc12)C1CCC2C3CC=C4CC(O)CCC4(C)C3CCC12C (centres unmarked) [UniPR1449]", 4.7),
    ("C[C@H](CCC(=O)N[C@H](CC(=O)O)Cc1c[nH]c2ccccc12)[C@H]1CCC2C3CC=C4C[C@@H](O)CC[C@]4(C)C3CC[C@@]21C (some centres unmarked) [UniPR1447]", 4.6),
]
